- System: DMPK2
- Construct: gene CDC42BPG
- ASSAY CONTEXT: concentration: 1 μM, replicates: in singlicate; n = 1;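 note: KINOMEscan kinase panel screen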
QUANTITY KIND: %Inh (%)
Please give a number only; it is taken to be in %.

Consider the worked cases shown below.
CN(C)Cc1ccc(-c2ccc3c(Nc4ccc(Oc5ccccn5)cc4)ccnc3c2)o1 | 0
c1ccc(Oc2ccc(Nc3ccnc4cc(-c5ccc(CNCCN6CCOCC6)o5)ccc34)cc2)nc1 | 0

Input line: Return reported %Inh; argument: Cc1cccc(NC(=O)Nc2ccc(Oc3ncnc4ccn(C)c34)cc2)c1
Output line: 0

Input line: Now try c1ccc(-c2n[nH]cc2Nc2ccnc3ccccc23)nc1 .
Output line: 0

Input line: Now try Fc1ccc(-c2ncn(C3CCNCC3)c2-c2ccnc(Oc3ccc(-c4ccccc4)cc3)n2)cc1 .
Output line: 86

----------
In this section, each of the compounds is paired with its reported %Inh.
- System: RSK2(Kin.Dom.1-N-terminal)
- Construct: gene RPS6KA3
- ASSAY CONTEXT: concentration: 1 μM, replicates: in singlicate; n = 1
// unit must come after the numeric part

O=C(NC1CCN(c2ccnc(Nc3ccc(F)cc3)n2)C1)c1cc2ccccc2s1 (stereo not shown) | 4%

Input line: Return reported %Inh; argument: CSc1cccc2c(-c3ccncn3)c(-c3ccc(F)cc3)nn12
Output line: 0%

Input line: Now try Cl.c1ccc(-c2ccc3c(Nc4ccc5[nH]ncc5c4)ccnc3c2)nc1 .
Output line: 0%

Input line: Now try CCn1c(-c2nonc2N)nc2c(C#CC(C)(C)O)ncc(OCCCCN)c21.O=C(O)C(F)(F)F.O=C(O)C(F)(F)F .
Output line: 19%

----------
- Test system: DYRK1A
- ASSAY CONTEXT: concentration: 1 μM, replicates: in singlicate; n = 1
# note: boundary value 6% maps to Criterion not met; %Inh below it maps to Criterion met

Input line: Item Cc1cccc(Nc2nc(N[C@H]3CCNC3)ncc2C(N)=O)c1.Cl : %Inh beneath 6%, strictly?
Output line: Criterion not met

Input line: Now try CNC(=O)c1ccccc1Nc1nc(Nc2ccc(N3CCOCC3)cc2)ncc1Cl.Cl .
Output line: Criterion not met

Input line: Now try c1ccc(Oc2ccc(Nc3ccnc4cc(-c5ccc(CNCCN6CCOCC6)o5)ccc34)cc2)nc1 .
Output line: Criterion met

Input line: Now try CC(=O)N1CCN(c2ccc(Nc3nccc(-c4sc(C(C)C)nc4-c4cccc(NS(=O)(=O)c5cccc(Cl)c5)c4)n3)cn2)CC1 .
Output line: Criterion met

Input line: Now try Cc1ccc(C)c(NC(=O)NC2CCN(c3ccnc(Nc4ccc(F)cc4)n3)C2)c1 (stereo not shown) .
Output line: Criterion not met

Input line: Now try Cc1ccc(F)c(C(=O)Nc2cccc(-c3nn4ccccc4c3-c3ccnc(Nc4cccc(F)c4)n3)c2)c1F .
Output line: Criterion not met

Input line: Now try NCCCC(NC(=O)c1cc(Br)c(-c2ccnc3[nH]ccc23)s1)c1ccccc1.O=C(O)C(F)(F)F.O=C(O)C(F)(F)F (stereo not shown) .
Output line: Criterion not met

Input line: Now try Cc1ccc(C(=O)N2CC[C@@H](O)C2)cc1-n1c(C)cc(OCc2ccc(F)cc2F)c(Br)c1=O .
Output line: Criterion met

Input line: Now try CC(=O)Nc1nc2cnc(Nc3cc(NC(=O)c4cccc(C5(C#N)CC5)c4Cl)ccc3C)nc2s1 .
Output line: Criterion met

Input line: Now try Cn1cc(-c2ccc3c(c2)CCN3C(=O)Cc2cccc(F)c2)c2c(N)ncnc21 .
Output line: Criterion not met

Input line: Now try COc1cc(Nc2nccc(N3CCC(NC(=O)c4cc5ccccc5s4)C3)n2)cc(OC)c1OC (stereo not shown) .
Output line: Criterion met

Input line: Now try CCS(=O)(=O)c1ccc(OC)c(Nc2nccc(-c3c(-c4cccc(NC(=O)c5c(F)cccc5F)c4)nn4ncccc34)n2)c1 .
Output line: Criterion not met

Input line: Now try Cl.NC(=O)c1cccc(Nc2nccc(Nc3ccc(Oc4c(Cl)cccc4Cl)c(Cl)c3)n2)c1 .
Output line: Criterion met

Input line: Now try O=C(Nc1n[nH]c2cc(-c3ccoc3)ccc12)C1CC1 .
Output line: Criterion not met

Input line: Now try COc1cc(Nc2ncc3c(C)nc(-c4cc5ccccc5[nH]4)n3n2)cc(OC)c1OC .
Output line: Criterion not met

----------
- Test system: HIPK1
- ASSAY CONTEXT: concentration: 1 μM, replicates: in singlicate; n = 1
Give met when the value for %Inh is at least 20%. Give not met when it is less.

Cc1cccc(NC(=O)Nc2ccc(Oc3ncnc4ccn(C)c34)cc2)c1 | met

Input line: Is %Inh at least 20%? Consider CCn1c(-c2nonc2N)nc2c(C#CC(C)(C)O)nc(OC[C@H](N)c3ccccc3)cc21 [GSK943949]
Output line: met

Input line: Now try COc1cc(Nc2ncc3c(C)nc(-c4cc5ccccc5[nH]4)n3n2)cc(OC)c1OC [GW869516] .
Output line: met

Input line: Now try O=c1[nH]cc(-c2ccc(N3CCOCC3)cc2)c2sc(-c3cn[nH]c3)cc12 [GSK2276055] .
Output line: met

Input line: Now try O=C(Nc1n[nH]c2nc(-c3ccc(O)cc3)ccc12)C1CC1 [SB-710363] .
Output line: met

Input line: Now try COc1cccc(-c2ccc3c(NC(=O)C4CC4)n[nH]c3n2)c1 [SB-710903] .
Output line: not met

Input line: Now try CCCCc1nn2ncccc2c1-c1ccnc(Nc2ccc(N3CCN(C)CC3)cc2)n1 [GW684941] .
Output line: met

Input line: Now try Cl.Cl.NCC(NC(=O)c1cc(-c2ccccc2)c(-c2ccnc3[nH]ccc23)s1)c1ccccc1 (stereo not shown) [GSK1321561] .
Output line: not met

Input line: Now try COc1cccc(NC(=O)NC2CCN(c3ccnc(Nc4cc(OC)c(OC)c(OC)c4)n3)C2)c1 (stereo not shown) [GSK1379763] .
Output line: not met

Input line: Now try O=C(NC1CCN(c2ccnc(Nc3ccc(F)cc3)n2)C1)c1cc2ccccc2s1 (stereo not shown) [GSK1379716] .
Output line: not met

----------
In this section, each of the molecules is paired with its reported %Inh.
- Test system: YANK3
- Construct: gene STK32C
- ASSAY CONTEXT: concentration: 1 μM, replicates: in singlicate; n = 1
Please give a number only; it is taken to be in %.

Oc1cc(Nc2ccnc3cc(I)ccc23)ccc1F | 31
Clc1ccc(-c2nn3ncccc3c2-c2ccnc(Nc3ccc4c(c3)OCCO4)n2)cc1 | 0
COc1cc(Nc2nccc(-c3c(-c4cccc(NC(=O)c5c(F)cccc5F)c4)nn4ncccc34)n2)cc(OC)c1OC | 56
Cl.Cl.NCC(NCc1ccc(-c2ccnc3[nH]ccc23)s1)c1ccccc1 (centres unmarked) | 0

As a next step, examine the molecule that follows.
Input line: Return reported %Inh; argument: CC(C)c1nc(-c2cccc(NS(=O)(=O)c3c(F)cccc3F)c2F)c(-c2ccnc(Nc3ccc(N4CCOCC4)nc3)n2)s1
Output line: 1

----------
In this section, each of the compounds is paired with its reported %Inh.
- Tested on: PHKG1
- ASSAY CONTEXT: concentration: 1 μM, replicates: in singlicate; n = 1
Please give a number only; it is taken to be in %.

Consider the worked cases shown below.
Cl.c1ccc(-c2ccc3c(Nc4ccc5[nH]ccc5c4)ccnc3c2)nc1 [GW440138] | 0
CCc1ccc(-c2ccc3c(c2)-c2c(cnn2C)S(=O)(=O)N3C)cc1 | 5
Cl.c1ccc(-c2ccc3c(Nc4ccc5[nH]ncc5c4)ccnc3c2)nc1 [GW440137] | 0
O=C(Nc1n[nH]c2nc(-c3ccc(O)cc3)ccc12)C1CC1 [SB-710363] | 5
CC(C)(C)c1ccc2nccc(Nc3cccc(O)c3)c2c1 [GW856795] | 0

Input line: Return reported %Inh; argument: CN(c1ccc(NC(=O)Nc2cc(C(F)(F)F)ccc2F)cc1)c1ccnc(Nc2ccc(S(N)(=O)=O)cc2)n1 [GW809893]
Output line: 14

Input line: Now try c1ccc(-c2cnc3nccnn23)cc1 [AH20685] .
Output line: 40

Input line: Now try Cl.NC(=O)c1cccc(Nc2nccc(Nc3ccc(Oc4c(Cl)cccc4Cl)c(Cl)c3)n2)c1 [GW659009] .
Output line: 0

Input line: Now try O=C(Nc1n[nH]c2cc(-c3ccoc3)ccc12)C1CC1 [SB-738481] .
Output line: 0

----------
- System: CDKL5
- ASSAY CONTEXT: concentration: 1 μM, replicates: in singlicate; n = 1
QUANTITY KIND: %Inh
// unit must come after the numeric part

CC(C)(C)c1ccc2nccc(Nc3cccc(O)c3)c2c1 | 0%
COc1cccc(NC(=O)NC2CCN(c3ccnc(Nc4cc(OC)c(OC)c(OC)c4)n3)C2)c1 (stereo not shown) | 0%
O=C(Nc1cccc(Oc2ccc3nc(NC(=O)C4CC4)cn3n2)c1)c1ccccc1C(F)(F)F | 7%
Nc1n[nH]c2cnc(-c3ccccc3)cc12 | 0%
FC(F)(F)c1ccc(/C=C/c2cncnc2Nc2ccc3[nH]c(Cc4ccccc4)nc3c2)cc1 | 0%
O=C(O)C(F)(F)F.O=C(O)C(F)(F)F.O=c1[nH]ccc2nc(N[C@@H]3CCCNC3)nc(Nc3ccc(S(=O)(=O)N4CCOCC4)cc3)c12 | 42%

Input line: Return reported %Inh; argument: Cc1cccc(Nc2nc(N[C@H]3CCNC3)ncc2C(N)=O)c1.Cl
Output line: 0%

Input line: Now try O=C(Nc1cccc(-c2nn3ccccc3c2-c2ccnc(Nc3cccc(C(F)(F)F)c3)n2)c1)c1c(F)cccc1F .
Output line: 0%

Input line: Now try Cc1ccc(F)c(C(=O)Nc2cccc(-c3nn4ccccc4c3-c3ccnc(Nc4cccc(F)c4)n3)c2)c1F .
Output line: 5%

Input line: Now try c1ccc(-c2cnc3nccnn23)cc1 .
Output line: 8%

Input line: Now try C[C@@H](Oc1cc(-n2cnc3cc(-c4ccnc(NCCS(C)(=O)=O)c4)ccc32)sc1C(N)=O)c1ccccc1Cl .
Output line: 0%

Input line: Now try Cl.Cl.NCC(NC(=O)c1cc(-c2ccccc2)c(-c2ccnc3[nH]ccc23)s1)c1ccccc1 (stereo not shown) .
Output line: 0%

Input line: Now try CN(C)S(=O)(=O)c1cc(-c2ccc3nccc(-c4cccc(S(N)(=O)=O)c4)c3c2)cnc1N .
Output line: 12%

Input line: Now try COC(=O)Nc1nc2cc(Oc3ccc(NC(=O)Nc4cc(C(F)(F)F)ccc4F)cn3)ccc2[nH]1.Cl.Cl .
Output line: 0%

Input line: Now try CC(=O)N1CCN(c2ccc(Nc3nccc(-c4sc(C(C)C)nc4-c4cccc(NS(=O)(=O)c5cccc(Cl)c5)c4)n3)cn2)CC1 .
Output line: 73%

Input line: Now try Cl.c1ccc(-c2ccc3c(Nc4ccc5[nH]ccc5c4)ccnc3c2)nc1 .
Output line: 0%
